Entry source: patent US20170088602A1

Study system: T1, human myostatin (mature, recombinant; R&D Systems) (human, UniProt O14793 267-375)
T1 construct: biotinylated in the mRNA display selection; also called GDF-8; mature myostatin
T1 sequence: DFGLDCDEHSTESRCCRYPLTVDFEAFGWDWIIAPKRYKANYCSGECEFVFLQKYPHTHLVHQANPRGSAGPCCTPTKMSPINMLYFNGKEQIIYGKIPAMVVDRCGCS
Protocol description: competitive HTRF (1889E01/myostatin/ActRIIb-Fc sandwich)
pIC50: −log10 of the molar value.
Measured metric: pIC50

In the examples that follow, each entry is paired with its recorded pIC50.
Binder: ATI-1276 [40K 2-branch PEG] (designed binder, 40K 2-branch PEG on the Cys of the EGSGC tail, cysteine mutant of 2524_D09) MGVSDVPRDLEVVAATPTSLLISWYLPYPAHMNYYRITYGETGGNSPVQEFTVPGRGLTATISGLKPGVDYTITVYAVTLTKSQILHHRPISINYRTEGSGCHHHHHH
pIC50: 9.55

Binder: 3007_C10 (designed binder) MGVSDVPRDLEVVAATPTSLLISWSLPSSGVAHYYRITYGETGGNSPVQEFTVPGRGVTATISGLKPGVDYTITVYAVTVTNTGVIIYKPISINYRTEIDKPSQHHHHHH
pIC50: 9.85

(P) ATI-1359 [40K 2-branch PEG] (designed binder, 40K 2-branch PEG on the Cys of the EGSGC tail) MGVSDVPRDLEVVAATPTSLLISWTLPHAGRAHYYRITYGETGGNSPVQEFTVPGRGVTATISGLKPGVDYTITVYAVTVTTTKVIHYKPISINYRTEGSGC
(Q) 3116_C06 (designed binder) MGVSDVPRDLEVVAATPTSLLISWSLPRPGNAHYYRITYGETGGNSPVQEFTVPGRGVTATISGLKPGVDYTITVYAVTVTGKDVIKYKPISINYRTEIDKPSQHHHHHH
Recorded pIC50 values differ for P and Q ; which one is higher? Refer to your chosen item by its label in the answer.
Q
